B1: Pistol ribozyme (parent)
chain: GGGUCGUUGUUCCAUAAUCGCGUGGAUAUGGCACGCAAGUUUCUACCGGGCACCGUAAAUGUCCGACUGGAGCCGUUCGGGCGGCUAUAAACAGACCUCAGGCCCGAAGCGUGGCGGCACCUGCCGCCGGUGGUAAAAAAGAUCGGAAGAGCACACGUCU

# Variants of: B1
# test_name: aptazyme ON/OFF ratio, guanine; higher = stronger switching; co-transcriptional cleavage with and without guanine
reported_metric: aptazyme ON/OFF ratio
One number for each entry.

# variant_annotation, aptazyme ON/OFF ratio
measured = [
    ("U7A G9U U10A C12A C13A", 1.1),
    ("U8C G9C U11A C12A C13A", 1.09),
    ("U7C U8G G9U U10G U11C C13A", 1.17),
    ("U7G G9U U10G U11G C12G", 1.16),
    ("U7C U8C G9U U10C C12U C13G", 1.1),
]

Hey, quick one: what's aptazyme ON/OFF ratio for each of these?
1. U7G G9U U10G U11G C12U
2. U7C U8C G9C U10G C12U C13G
3. U7C U8G U10G C12U C13G

1: 1.29; 2: 1.09; 3: 1.23

Hi, could you look up aptazyme ON/OFF ratio for each item in my list?
1. U7G U8A G9A U11A C12A
2. U8C G9U U10A U11G C12A C13A

1: 1.27; 2: 1.14
